tested target: human PAD4 (hPAD4) (Homo sapiens (Human), UniProt Q9UM07)
Sequence (Q9UM07 whole entry): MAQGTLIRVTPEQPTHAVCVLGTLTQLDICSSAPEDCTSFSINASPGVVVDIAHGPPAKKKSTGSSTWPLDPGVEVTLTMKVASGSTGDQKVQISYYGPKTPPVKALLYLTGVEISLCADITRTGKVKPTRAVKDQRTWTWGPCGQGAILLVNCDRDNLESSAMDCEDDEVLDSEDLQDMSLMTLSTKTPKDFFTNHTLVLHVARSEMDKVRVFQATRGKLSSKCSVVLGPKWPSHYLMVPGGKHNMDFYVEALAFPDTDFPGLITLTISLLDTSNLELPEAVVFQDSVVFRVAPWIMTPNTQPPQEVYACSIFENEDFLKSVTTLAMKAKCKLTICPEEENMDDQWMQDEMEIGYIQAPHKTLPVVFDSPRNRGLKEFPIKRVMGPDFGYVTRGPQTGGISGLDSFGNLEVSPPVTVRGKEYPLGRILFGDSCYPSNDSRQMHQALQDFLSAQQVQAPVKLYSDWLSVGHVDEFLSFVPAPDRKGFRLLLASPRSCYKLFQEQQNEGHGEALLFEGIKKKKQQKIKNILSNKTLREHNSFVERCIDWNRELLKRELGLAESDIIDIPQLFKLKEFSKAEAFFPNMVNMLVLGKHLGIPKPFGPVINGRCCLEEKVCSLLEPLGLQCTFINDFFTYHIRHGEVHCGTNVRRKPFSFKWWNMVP
test details: RFMS Human PAD4 Functional Assay 1
assay setup: RFMS assay 1; 5 nM hPAD4, 250 μM BAEE substrate, 50 μM calcium, 37° C.
measured parameter: IC50 (nM)

Field: example entries. Status: answers known.
INPUT: Form field - read-out: IC50; system: human PAD4 (hPAD4) (Homo sapiens (Human), UniProt Q9UM07); submitted item: Cc1c(-c2cc3ccc(N4CCC[C@@H](O)C4)nc3n2CC2CC2)nn2cc(C(=O)N3CC4CCC3[C@@H]4N)cc(F)c12 (stereo partly shown) [Example 265]
OUTPUT: 110

INPUT: Form field - read-out: IC50; system: human PAD4 (hPAD4) (Homo sapiens (Human), UniProt Q9UM07); submitted item: COc1cc(C(=O)N2C[C@H](N)C[C@@H](F)C2)cc2oc(-c3cc4ccc(-c5cccc(O)c5F)cc4n3CC3CC3)c(C)c12
OUTPUT: 5590

(P) Cc1c(-c2cc3cccc(C4CCN(C(=O)COC(C)C)CC4)c3n2CC2CC2)nn2cc(C(=O)N3CCC[C@@H](N)C3)ccc12
(Q) COc1cc(C(=O)N2C[C@H](N)C[C@@H](F)C2)cn2nc(-c3sc4cccc(-c5cnn(CCO)c5)c4c3CC3CC3)c(C)c12
INPUT: Which of the two items, P and Q , has the greater recorded IC50? Returns: label corresponding to the selected item.
OUTPUT: P

(1) Cc1c(-c2cc3ccc(N4CCC(O)CC4)nc3n2CC2CC2)nn2cc(C(=O)N3C[C@H](N)C[C@@H](F)C3)ccc12
(2) COCC1CN(c2ccc3cc(-c4nn5cc(C(=O)N6C[C@H](N)C[C@@H](F)C6)cc(OC)c5c4C)n(CC4CC4)c3c2)C1
(3) CCOCC(=O)N1CCC(c2cccc3cc(-c4nn5cc(C(=O)N6C[C@H](N)C[C@@H](F)C6)ccc5c4C)n(CC4CC4)c23)CC1
INPUT: Order the 3 compounds from highest to lowest IC50. Write the labels in rank order as requested.
OUTPUT: 1, 2, 3
(1: 1680 nM, 2: 534 nM, 3: 30 nM)

(I) COc1cc(C(=O)N2C[C@H](N)C[C@@H](F)C2)cn2nc(-c3cc4ccc(C(C)(C)O)cc4n3CC3CC3)c(C)c12
(II) Cc1c(-c2cc3cc(F)cc(C4CCN(C(=O)[C@H]5CC[C@@H](O)CC5)CC4)c3n2CC2CC2)nn2cc(C(=O)N3CCC[C@@H](N)C3)ccc12
(III) Cc1c(-c2cc3ccc(-c4ccc(N5CCNC5=O)cc4)nc3n2CC2CC2)nn2cc(C(=O)N3CCC[C@@H](N)C3)cc(F)c12
INPUT: Please produce an ascending ranking of these compounds based on IC50. Write the labels in rank order as requested.
OUTPUT: I, II, III

(a) COc1cc(C(=O)N2C[C@H](N)C[C@@H](F)C2)cn2nc(-c3cc4ccc(-c5ccc(NC(C)=O)cc5)cc4n3CC3CC3)c(C)c12
(b) COc1cc(C(=O)N2CC3CCC2[C@@H]3N)cn2nc(-c3cc4cccc(C5CCN(C(C)=O)CC5)c4n3CC3CC3)c(C)c12 (stereo partly shown)
(c) Cc1ccc2cc(-c3nn4cc(C(=O)N5C[C@H](N)C[C@@H](F)C5)cc(F)c4c3C)n(CC3CC3)c2n1
INPUT: Please produce an ascending ranking of these compounds based on IC50. Write the labels in rank order as requested.
OUTPUT: b, a, c
(b: 10 nM, a: 150 nM, c: 358 nM)
